The following compounds are listed with their measured IC50 values.
# assay_target: E. coli Enopyruvyl-UPD-N-acetylglucosamine reductase, Mur B (Escherichia coli)
# Sequence (P08373 whole entry): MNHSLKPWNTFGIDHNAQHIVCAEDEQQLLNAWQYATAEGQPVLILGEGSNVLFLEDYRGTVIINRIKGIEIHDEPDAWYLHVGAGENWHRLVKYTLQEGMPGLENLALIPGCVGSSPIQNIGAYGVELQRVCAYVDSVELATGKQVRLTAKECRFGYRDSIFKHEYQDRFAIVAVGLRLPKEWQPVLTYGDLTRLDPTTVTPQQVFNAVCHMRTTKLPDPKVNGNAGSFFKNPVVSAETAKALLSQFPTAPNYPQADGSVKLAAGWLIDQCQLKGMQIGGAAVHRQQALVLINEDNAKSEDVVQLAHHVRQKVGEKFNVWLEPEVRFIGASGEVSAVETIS
# protocol_summary: biochemical
# condition: (E) E. coli enzyme; read-out: MurB IC50 (converted)
Just the number please, in µM, no unit attached.

>>> test_value("O=C1O/C(=C\\c2cccc3ccccc23)C(O)=C1c1ccc2ccccc2c1 [Example 44]")
19.2
>>> test_value("O=C1O/C(=C\\c2ccc(Cl)cc2)C(O)=C1c1ccc2ccccc2c1 [Example 43]")
17.2
>>> test_value("O=C1O/C(=C\\c2cccc(C(F)(F)F)c2)C(O)=C1c1ccc(-c2ccccc2)cc1 [Example 130]")
22
>>> test_value("O=C1O/C(=C\\c2cc(F)cc(C(F)(F)F)c2)C(O)=C1c1cccc(-c2ccccc2)c1 [Example 109]")
9.38

Please look at the following compound next.
The compound identified as Cc1cc(/C=C2\OC(=O)C(c3cccc(Cl)c3)=C2O)ccc1-c1ccccc1Cl [Example 30] registered its IC50 at 4.72

###

The following compounds are listed with their measured IC50 values.
# assay_target: E. coli Uridine-diphosphate-N-acetvimuramoyl: L-alanine lipase, MurC (Escherichia coli, UniProt P17952)
# Sequence (P17952 whole entry): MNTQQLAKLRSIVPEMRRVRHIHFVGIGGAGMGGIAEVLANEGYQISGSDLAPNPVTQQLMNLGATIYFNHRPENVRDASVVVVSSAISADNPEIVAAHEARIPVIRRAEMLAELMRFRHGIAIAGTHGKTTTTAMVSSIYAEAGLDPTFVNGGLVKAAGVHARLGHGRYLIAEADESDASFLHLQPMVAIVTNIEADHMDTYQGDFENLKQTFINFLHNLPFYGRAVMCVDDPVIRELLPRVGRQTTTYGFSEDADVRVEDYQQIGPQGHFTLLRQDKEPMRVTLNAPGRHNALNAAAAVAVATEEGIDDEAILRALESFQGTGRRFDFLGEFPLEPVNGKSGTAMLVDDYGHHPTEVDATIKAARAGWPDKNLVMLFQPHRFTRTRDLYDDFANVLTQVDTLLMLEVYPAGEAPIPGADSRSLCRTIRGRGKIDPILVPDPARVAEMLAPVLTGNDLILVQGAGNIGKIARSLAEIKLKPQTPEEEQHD
# protocol_summary: Inhibitory activity against MurC (E. coli)
# Type: biochemical
# condition: (E) E. coli enzyme; read-out: MurC IC50 (converted)
Just the number please, in µM, no unit attached.

Example results:
>>> test_value("O=C1O/C(=C\\c2cc(C(F)(F)F)ccc2Cl)C(O)=C1c1ccc(-c2ccccc2)cc1")
2.26
>>> test_value("O=C1O/C(=C\\C2CCCCC2)C(O)=C1c1ccc(-c2ccccc2)cc1")
37.5
>>> test_value("O=C1O/C(=C\\c2ccc(-c3ccccc3F)cc2)C(O)=C1c1ccccc1F")
37.2
>>> test_value("O=C1O/C(=C\\c2cc(C(F)(F)F)ccc2F)C(O)=C1c1ccc(-c2ccccc2)cc1")
44.6
>>> test_value("O=C1O/C(=C\\c2ccc(-c3ccccc3)cc2)C(O)=C1c1ccc(Cl)cc1")
13.3
>>> test_value("O=C1O/C(=C\\c2ccc(-c3ccccc3C(F)(F)F)cc2)C(O)=C1c1ccccc1C(F)(F)F")
29.4
>>> test_value("O=C1O/C(=C\\c2cccc3ccccc23)C(O)=C1c1cc(Cl)cc(Cl)c1")
13

Please look at the following compound next.
The compound identified as O=C1O/C(=C\c2cc(F)cc(C(F)(F)F)c2)C(O)=C1c1cccc(-c2ccccc2)c1 [Example 109] registered its IC50 at 23.5

###

# assay_target: E. coli UDP-N-acetylglucosamine enolpyruvoyl transferase, MurA (Escherichia coli, UniProt P0A749)
# Sequence (P0A749 whole entry): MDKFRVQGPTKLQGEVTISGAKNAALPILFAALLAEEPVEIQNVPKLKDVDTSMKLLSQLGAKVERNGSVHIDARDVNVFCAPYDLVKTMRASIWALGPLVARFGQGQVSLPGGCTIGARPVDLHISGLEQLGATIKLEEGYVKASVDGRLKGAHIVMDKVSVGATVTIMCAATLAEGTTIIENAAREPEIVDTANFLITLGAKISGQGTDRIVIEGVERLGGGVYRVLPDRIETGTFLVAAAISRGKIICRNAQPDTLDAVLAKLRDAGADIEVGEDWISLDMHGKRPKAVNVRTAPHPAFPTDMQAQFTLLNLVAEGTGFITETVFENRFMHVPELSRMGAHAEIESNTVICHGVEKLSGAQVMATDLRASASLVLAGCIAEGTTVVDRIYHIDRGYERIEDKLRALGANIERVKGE
readout_label: IC50 (µM)
Just the number please, in µM, no unit attached.

Example results:
>>> test_value("CCOc1ccc(-c2ccc(C3=C(O)/C(=C/c4cccc(C(F)(F)F)c4)OC3=O)cc2)cc1")
44.2
>>> test_value("O=C1O/C(=C\\c2cccc(-c3ccc(Cl)c(Cl)c3)c2)C(O)=C1c1ccc(Cl)c(Cl)c1")
4.18

Please look at the following molecule next.
The molecule identified as O=C1O/C(=C\c2ccc(Cl)cc2)C(O)=C1c1ccc2ccccc2c1 registered its IC50 at 57.3

###

# assay_target: E. coli UDP-N-acetylglucosamine enolpyruvoyl transferase, MurA (Escherichia coli, UniProt P0A749)
The following molecules are listed with their measured IC50 values.
Just the number please, in µM, no unit attached.

Example results:
>>> test_value("O=C1O/C(=C\\c2ccccc2C(F)(F)F)C(O)=C1c1ccc(-c2ccccc2)c(F)c1")
32.8
>>> test_value("CC(C)(C)c1ccc(-c2ccc(C3=C(O)/C(=C/c4cc(C(F)(F)F)ccc4Cl)OC3=O)cc2)cc1")
8.02

The molecule identified as O=C1O/C(=C\c2ccc(-c3ccccc3)cc2)C(O)=C1c1cc(Cl)cc(Cl)c1 [Example 68] registered its IC50 at 7.33

The molecule identified as O=C1O/C(=C\c2cccc(C(F)(F)F)c2)C(O)=C1c1ccc(-c2ccccc2)c(F)c1 registered its IC50 at 21.1

###

# assay_target: E. coli Uridine-diphosphate-N-acetylmuramoyl-L-alanine: D-glutamate liease, MurD (Escherichia coli, UniProt P14900)
# Sequence (P14900 whole entry): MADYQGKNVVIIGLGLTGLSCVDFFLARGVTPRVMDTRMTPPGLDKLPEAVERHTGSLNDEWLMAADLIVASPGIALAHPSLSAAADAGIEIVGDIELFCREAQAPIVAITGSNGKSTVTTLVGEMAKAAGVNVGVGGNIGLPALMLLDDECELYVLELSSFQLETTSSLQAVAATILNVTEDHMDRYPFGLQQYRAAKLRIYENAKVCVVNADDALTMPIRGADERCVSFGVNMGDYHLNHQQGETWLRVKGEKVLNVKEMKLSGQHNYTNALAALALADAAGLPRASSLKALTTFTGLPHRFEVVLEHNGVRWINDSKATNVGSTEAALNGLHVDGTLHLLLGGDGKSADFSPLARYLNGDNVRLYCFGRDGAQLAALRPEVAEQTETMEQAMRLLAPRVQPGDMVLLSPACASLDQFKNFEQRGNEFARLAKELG
readout_label: IC50

The compound identified as O=C1O/C(=C\c2ccc(-c3ccccc3F)cc2)C(O)=C1c1ccccc1F registered its IC50 at > 66.4 µM

The compound identified as COc1ccccc1-c1ccc(/C=C2\OC(=O)C(c3ccc(Cl)c(Cl)c3)=C2O)cc1OC registered its IC50 at > 53.3 µM

###

The following molecules are listed with their measured MurD IC50 values.
# assay_target: E. coli Uridine-diphosphate-N-acetylmuramoyl-L-alanine: D-glutamate liease, MurD (Escherichia coli, UniProt P14900)
# protocol_summary: biochemical
# condition: (E) E. coli enzyme

>>> test_value("O=C1O/C(=C\\c2cc(C(F)(F)F)ccc2Cl)C(O)=C1c1ccc(-c2ccccc2)c(F)c1")
"9 (E) μg/mL"
>>> test_value("O=C1O/C(=C\\c2cc(C(F)(F)F)ccc2F)C(O)=C1c1ccc(-c2ccccc2)c(F)c1")
"6 (E) μg/mL"
>>> test_value("O=C1O/C(=C\\c2cccc(C(F)(F)F)c2Cl)C(O)=C1c1ccc(-c2ccccc2)c(F)c1")
"16 (E) μg/mL"

Please look at the following molecule next.
The molecule identified as Cc1ccc(C=C2OC(=O)C(c3ccc(Cl)cc3)=C2O)s1 (mixture of isomers) registered its MurD IC50 at > 25 µg/mL

###

The following compounds are listed with their measured % Mortality 48 h values.
# Test system: larvae of blowfly, Lucilia sericata
# protocol_summary: whole plant or invertebrate
# condition: dose rate of 20 ppm; Lucilia sericata larvae on treated filter paper with bovine serum; assessed at 48 h
Just the number please, in %, no unit attached.

Example results:
>>> test_value("N#Cc1cccc(C2=C(O)C(=Cc3ccc(Cl)cc3)OC2=O)c1 (mixture of isomers)")
0
>>> test_value("N#Cc1ccc(C=C2OC(=O)C(c3ccc(F)cc3)=C2O)cc1 (mixture of isomers)")
0
>>> test_value("O=C1OC(=Cc2ccc(F)cc2)C(O)=C1c1cccc(Cl)c1 (mixture of isomers)")
0
>>> test_value("N#Cc1ccc(C=C2OC(=O)C(c3ccc(C#N)cc3)=C2O)cc1 (mixture of isomers)")
100
>>> test_value("N#Cc1ccc(-c2ccc(C=C3OC(=O)C(c4ccc(F)cc4)=C3O)cc2)cc1 (mixture of isomers)")
0
>>> test_value("O=C1O/C(=C\\c2ccc(-c3ccccc3)c(F)c2)C(O)=C1c1cccc(C(F)(F)F)c1")
0

Please look at the following compound next.
The compound identified as O=C1OC(=Cc2ccc(-c3ccc(Cl)cc3)cc2)C(O)=C1c1cccc(C(F)(F)F)c1 (mixture of isomers) registered its % Mortality 48 h at 0

###

# System: enterococci
# protocol_summary: Minimum inhibitory concentration, microdilution broth method, enterococci
# Format: cell-based
# condition: Enterococcus faecalis, E. faecalis GC 2242; Mueller-Hinton broth, 18-22 hours at 35° C.; read-out: MIC E. faecalis GC 2242
# Description: Evaluation of the Minimum Inhibitory Concentration of Test Compounds Against A Variety of Bacterial Strains In this evaluation the minimal inhibitory concentration (MIC) of test compounds against Gram positive and Gram negative bacteria is performed using the microdilution broth method as recommended by the National Committee for Clinical Laboratory Standards (Approved Standards M7-A5 2000). Mueller-Hinton broth is used for the enterobacteriaceae, staphylococci and enterococci. […]
readout_label: MIC (µg/mL)
Just the number please, in µg/mL, no unit attached.

>>> test_value("COc1cc(/C=C2\\OC(=O)C(c3cc(Cl)cc(Cl)c3)=C2O)ccc1-c1ccccc1Cl")
2
>>> test_value("O=C1O/C(=C\\c2ccc(C(F)(F)F)cc2)C(O)=C1c1ccc(-c2ccccc2)cc1")
2

The compound identified as O=C1O/C(=C\C2CCCCC2)C(O)=C1c1ccc(Cl)cc1 registered its MIC at 32

###

The following compounds are listed with their measured % Mortality 24 h values.
# System: larvae of blowfly, Lucilia sericata
# protocol_summary: whole plant or invertebrate
# condition: dose rate of 20 ppm; Lucilia sericata larvae on treated filter paper with bovine serum; assessed at 24 h
# Method: Comparative Evaluation of the Efficacy of a 3-Aryl-4-hydroxyfuranone Compound Against Blowfly Larvae In this evaluation, filter paper discs are treated with an acetone solution of test compound and allowed to dry. Bovine serum and newly emerged larvae of blowfly, Lucilia sericata, are added to the treated filter paper. Mortality is assessed at 24 h and 48 h. When more than one evaluation is performed, the data are averaged.
Just the number please, in %, no unit attached.

>>> test_value("O=C1OC(=Cc2ccc(F)cc2)C(O)=C1c1cccc(Cl)c1 (mixture of isomers)")
0

Hey, larvae of blowfly, Lucilia sericata data for N#Cc1ccc(-c2ccc(/C=C3\OC(=O)C(c4ccc(Cl)cc4)=C3O)cc2)cc1 [R=H, R1=4-Cl—C6H4, R2=4-(4′-CN-biphenyl)] : % Mortality 24 h came out at 0

Hey, larvae of blowfly, Lucilia sericata data for COC1=C(c2ccc(Cl)cc2)C(=O)OC1=Cc1ccc(C#N)cc1 (mixture of isomers) : % Mortality 24 h came out at 0

Hey, larvae of blowfly, Lucilia sericata data for O=C1O/C(=C\c2ccc(-c3ccccc3)c(F)c2)C(O)=C1c1cccc(C(F)(F)F)c1 : % Mortality 24 h came out at 0

Hey, larvae of blowfly, Lucilia sericata data for N#Cc1ccc(C=C2OC(=O)C(c3ccc(F)cc3)=C2O)cc1 (mixture of isomers) : % Mortality 24 h came out at 0

Hey, larvae of blowfly, Lucilia sericata data for O=C1OC(=Cc2ccc(C(F)(F)F)cc2)C(O)=C1c1ccc(C(F)(F)F)cc1 (mixture of isomers) : % Mortality 24 h came out at 100

Hey, larvae of blowfly, Lucilia sericata data for COC1=C(c2cccc(C(F)(F)F)c2)C(=O)O/C1=C\c1ccccc1 : % Mortality 24 h came out at 0
